measurement-target: T1, P3028 (VFDEFKPLVEEPQNLIK, SEQ ID NO: 185), His-tagged (human)
T1 construct: Synthetic fragment of human serum albumin (positions 397-413); used in solution as His-tagged peptide PGE73; also called PGE73; not shown: His-tag
T1 peptide: VFDEFKPLVEEPQNLIK
assay-details: PEPSCAN ELISA; peptide on chip, His-P3028 added;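 also: peroxidase color development with ABTS and H2O2 substrate, OD405 imaged by CCD camera with image processing and taken as raw values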
readout-name: RAMPO Score

[
  {
    "binder": "KKEDTFFVKLSLFTER [KKEDTFFVKLSLFTER (SEQ ID NO: 285)]",
    "reported": "528 rampo units"
  },
  {
    "binder": "KKLDTFFVKLSLFTET [KKLDTFFVKLSLFTET (SEQ ID NO: 392)]",
    "reported": "292 rampo units"
  },
  {
    "binder": "KKLDTFFVKLSLFMER [KKLDTFFVKLSLFMER (SEQ ID NO: 381)]",
    "reported": "501 rampo units"
  },
  {
    "binder": "KKLCTFFVKLSLFTER [KKLCTFFVKLSLFTER (SEQ ID NO: 449)]",
    "reported": "344 rampo units"
  },
  {
    "binder": "KKLDTFFVKLSLFTDR [KKLDTFFVKLSLFTDR (SEQ ID NO: 387)]",
    "reported": "404 rampo units"
  },
  {
    "binder": "TKLDTFFVKLSLFTER [TKLDTFFVKLSLFTER (SEQ ID NO: 280)]",
    "reported": "493 rampo units"
  },
  {
    "binder": "KKGDTFFVKLSLFTER [KKGDTFFVKLSLFTER (SEQ ID NO: 287)]",
    "reported": "563 rampo units"
  },
  {
    "binder": "KKFDTFFVKLSLFTER [KKFDTFFVKLSLFTER (SEQ ID NO: 286)]",
    "reported": "393 rampo units"
  },
  {
    "binder": "KKLDTFFVKLSLFTRR [KKLDTFFVKLSLFTRR (SEQ ID NO: 531)]",
    "reported": "237 rampo units"
  },
  {
    "binder": "KKLDTFFVKLSLFHER [KKLDTFFVKLSLFHER (SEQ ID NO: 378)]",
    "reported": "463 rampo units"
  },
  {
    "binder": "KKLDTFFQKLSLFTER [KKLDTFFQKLSLFTER (SEQ ID NO: 513)]",
    "reported": "271 rampo units"
  },
  {
    "binder": "KKLDTFFVKLSLFPER [KKLDTFFVKLSLFPER (SEQ ID NO: 383)]",
    "reported": "551 rampo units"
  },
  {
    "binder": "KKLDTGFVKLSLFTER [KKLDTGFVKLSLFTER (SEQ ID NO: 446)]",
    "reported": "347 rampo units"
  },
  {
    "binder": "KKLDTFFVKLSNFTER [KKLDTFFVKLSNFTER (SEQ ID NO: 354)]",
    "reported": "462 rampo units"
  },
  {
    "binder": "KKLDTFFIKLSLFTER [KKLDTFFIKLSLFTER (SEQ ID NO: 416)]",
    "reported": "401 rampo units"
  }
]
